molecular target: MC1R (Homo sapiens); assay: Competitive binding with 125I-NDP-MSH, HEK293 membrane preparations, MC1R; conditions: Ki MC1R, competition with 125I-NDP-MSH;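 note: Read-out: receptor-bound radioligand retained by filtration and counted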
Sequence (Q01726 whole entry): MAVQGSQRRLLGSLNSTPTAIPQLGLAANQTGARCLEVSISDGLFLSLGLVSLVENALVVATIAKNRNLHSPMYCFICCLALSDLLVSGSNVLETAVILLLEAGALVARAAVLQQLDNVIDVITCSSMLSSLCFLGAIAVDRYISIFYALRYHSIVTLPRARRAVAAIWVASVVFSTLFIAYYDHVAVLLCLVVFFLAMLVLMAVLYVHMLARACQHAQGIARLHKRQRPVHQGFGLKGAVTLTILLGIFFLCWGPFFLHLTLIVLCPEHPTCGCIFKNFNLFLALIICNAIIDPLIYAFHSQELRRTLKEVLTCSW
Where a SMILES comes first, the peptide text is derived from it. [ ]: non-standard residue; d: D form. dCha = N[C@H](CC1CCCCC1)C(=O)O
I'd be grateful if you could share measured pKi for these entries.
Units for pKi: none; it is -log10 of a concentration expressed in mol/L.

For CCCCCCCCCCCCCCCCCC(=O)N[C@@H](Cc1c[nH]cn1)C(=O)N[C@H](Cc1ccccc1)C(=O)N[C@@H](CCCNC(=N)N)C(=O)N[C@@H](Cc1c[nH]c2ccccc12)C(N)=O [compound 820, (Stearyl) HfRW] the compound record lists pKi as 8.89

For CC[C@@H](C)[C@@H](NC(=O)[C@@H](CO)NC(=O)[C@@H](Cc1c[nH]cn1)NC(=O)[C@@H](CC1CCCCC1)NC(=O)[C@@H](CCCNC(=N)N)NC(=O)[C@@H](Cc1c[nH]c2ccccc12)NC(=O)CNC(=O)[C@@H](CCCCN)NC(=O)[C@H]1CCCN1C(=O)[C@H](NC(C)=O)C(C)C)C(=O)N[C@@H](C(=O)N[C@H](CO)C(=O)N[C@H](CO)C(N)=O)[C@H](C)CC [compound 891, vpkGwr(D-Cha)hsiiss] (Ac-[dV][dP][dK]G[dW][dR][dCha][dH][dS][dI][dI][dS][dS]-NH2) the compound record lists pKi as 9.37

What the record says about CC[C@@H](C)[C@@H](NC(=O)[C@@H](CO)NC(=O)[C@@H](Cc1c[nH]cn1)NC(=O)[C@@H](Cc1ccccc1)NC(=O)[C@@H](CCCNC(=N)N)NC(=O)[C@@H](Cc1c[nH]c2ccccc12)NC(=O)CNC(=O)[C@@H](CCCCN)NC(=O)[C@H]1CCCN1C(=O)[C@H](NC(C)=O)C(C)C)C(=O)N[C@@H](C(=O)N[C@H](CO)C(=O)N[C@H](CO)C(N)=O)[C@H](C)CC [compound 886, vpkgwrfhsiiss] (Ac-[dV][dP][dK]G[dW][dR][dF][dH][dS][dI][dI][dS][dS]-NH2) : pKi is 9.00

Form field pKi, entry CCCCSCC[C@@H](NC(=O)[C@@H](CCC(=O)O)NC(=O)[C@@H](Cc1c[nH]cn1)NC(=O)[C@@H](CC1CCCCC1)NC(=O)[C@@H](CCCNC(=N)N)NC(=O)[C@@H](Cc1c[nH]c2ccccc12)NC(=O)CNC(=O)[C@@H](CCCCN)NC(=O)[C@H]1CCCN1C(=O)[C@H](NC(C)=O)C(C)C)C(=O)N[C@H](CO)C(=O)N[C@H](Cc1ccc(O)cc1)C(=O)N[C@H](CO)C(N)=O : 8.72
